# test system: Pim-1 (Homo sapiens)
# Construct: purchased Eurofins Pharma Discovery Services (KinaseProfiler; Cerep BioPrint panel)
# Sequence (P11309 whole entry): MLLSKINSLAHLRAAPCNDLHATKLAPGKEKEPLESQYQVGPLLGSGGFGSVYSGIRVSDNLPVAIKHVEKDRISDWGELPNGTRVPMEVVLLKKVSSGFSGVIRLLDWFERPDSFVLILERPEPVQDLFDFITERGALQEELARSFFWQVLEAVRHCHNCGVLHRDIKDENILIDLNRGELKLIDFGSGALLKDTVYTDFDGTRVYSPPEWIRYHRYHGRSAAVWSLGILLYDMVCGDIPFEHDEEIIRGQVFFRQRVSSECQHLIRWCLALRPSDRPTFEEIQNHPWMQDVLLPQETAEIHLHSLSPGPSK
# run description: kinase selectivity panel
# Assay type: biochemical
# condition set: read-out: percentage of control activity (POC), Pim-1
Doc: threshold 80% (exclusive). Items with remaining activity at 10 µM beneath it return True; others return False.

[[record]]
compound = "CC(C)(C)N1CCC(c2cc(-c3ccc(F)cc3Cl)c3cc[n+]([O-])c(-c4c(Cl)cccc4Cl)c3n2)CC1 [compound 2]"
assigned_label = "False"

[[record]]
compound = "Cn1cc(-c2cccc(-c3nc(C(=O)NC4C5CC6CC4CC(O)(C6)C5)c(N)nc3N)c2)cn1 (centres unmarked) [compound 4]"
assigned_label = "True"

[[record]]
compound = "COc1c(NC(=O)c2ccc(C)c(-c3nnc4c(NCC(C)(C)C)nccn34)c2)cc(C(C)(C)C)cc1NS(C)(=O)=O [compound 7, reference compound]"
assigned_label = "False"


====

Parameter: remaining activity at 10 µM. Scope: all listed entries.
# test system: MuSK (Homo sapiens)
# Construct: purchased Eurofins Pharma Discovery Services (KinaseProfiler; Cerep BioPrint panel)
# Sequence (O15146 24-869): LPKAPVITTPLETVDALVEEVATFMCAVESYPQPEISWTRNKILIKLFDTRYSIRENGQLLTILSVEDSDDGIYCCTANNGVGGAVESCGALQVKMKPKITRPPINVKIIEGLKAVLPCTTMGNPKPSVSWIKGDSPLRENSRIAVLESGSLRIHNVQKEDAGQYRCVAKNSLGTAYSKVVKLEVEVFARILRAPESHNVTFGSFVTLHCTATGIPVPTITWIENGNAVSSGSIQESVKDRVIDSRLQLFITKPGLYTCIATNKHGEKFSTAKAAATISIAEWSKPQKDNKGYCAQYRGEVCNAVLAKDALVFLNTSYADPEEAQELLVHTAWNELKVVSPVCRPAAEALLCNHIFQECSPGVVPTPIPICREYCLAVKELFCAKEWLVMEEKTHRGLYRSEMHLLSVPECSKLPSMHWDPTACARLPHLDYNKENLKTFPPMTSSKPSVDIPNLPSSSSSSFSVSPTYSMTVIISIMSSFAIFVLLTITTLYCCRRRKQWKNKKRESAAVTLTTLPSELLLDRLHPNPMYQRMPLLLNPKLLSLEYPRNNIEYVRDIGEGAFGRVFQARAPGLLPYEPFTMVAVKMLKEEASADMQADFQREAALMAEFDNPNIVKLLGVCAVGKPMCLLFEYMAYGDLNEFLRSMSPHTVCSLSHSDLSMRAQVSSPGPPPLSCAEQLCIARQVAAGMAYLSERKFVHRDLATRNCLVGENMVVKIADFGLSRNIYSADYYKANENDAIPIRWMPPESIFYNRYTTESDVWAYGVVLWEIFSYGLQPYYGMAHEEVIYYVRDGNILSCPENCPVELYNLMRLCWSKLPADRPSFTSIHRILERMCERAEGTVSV
# run description: kinase selectivity panel
# Assay type: biochemical
# condition set: read-out: percentage of control activity (POC), MuSK
measurement name: remaining activity at 10 µM (%)

[[record]]
compound = "CS(=O)(=O)N1CCN(c2ccc(Nc3ncc(C(N)=O)c(NC4CC4)n3)cc2)CC1"
measurement_name = "remaining activity at 10 µM"
meas_value = 60

[[record]]
compound = "COc1c(NC(=O)c2ccc(C)c(-c3nnc4c(NCC(C)(C)C)nccn34)c2)cc(C(C)(C)C)cc1NS(C)(=O)=O [compound 7, reference compound]"
measurement_name = "remaining activity at 10 µM"
meas_value = 104

[[record]]
compound = "CC(C)(C)N1CCC(c2cc(-c3ccc(F)cc3Cl)c3cc[n+]([O-])c(-c4c(Cl)cccc4Cl)c3n2)CC1"
measurement_name = "remaining activity at 10 µM"
meas_value = 110

[[record]]
compound = "Cn1cc(-c2cccc(-c3nc(C(=O)NC4C5CC6CC4CC(O)(C6)C5)c(N)nc3N)c2)cn1 (centres unmarked)"
measurement_name = "remaining activity at 10 µM"
meas_value = 101

[[record]]
compound = "Cc1ccc(C(=O)NCC2CC2)cc1-c1ccc2c(c1)NC(=O)C21CCCC1"
measurement_name = "remaining activity at 10 µM"
meas_value = 106


====

Parameter: remaining activity at 10 µM. Scope: all listed entries.
# test system: MKK6 (Homo sapiens)
# Construct: purchased Eurofins Pharma Discovery Services (KinaseProfiler; Cerep BioPrint panel)
# Sequence (P52564 whole entry): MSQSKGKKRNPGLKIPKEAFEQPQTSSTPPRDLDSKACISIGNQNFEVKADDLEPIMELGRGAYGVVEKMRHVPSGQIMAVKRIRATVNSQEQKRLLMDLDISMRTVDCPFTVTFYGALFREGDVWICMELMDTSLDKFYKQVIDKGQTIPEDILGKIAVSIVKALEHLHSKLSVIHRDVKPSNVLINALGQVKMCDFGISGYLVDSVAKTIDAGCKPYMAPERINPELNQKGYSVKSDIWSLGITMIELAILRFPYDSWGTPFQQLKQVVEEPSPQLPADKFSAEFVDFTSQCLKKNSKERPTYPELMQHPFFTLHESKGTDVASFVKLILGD
# run description: kinase selectivity panel
# Format: biochemical
# condition set: read-out: percentage of control activity (POC), MKK6
measurement name: remaining activity at 10 µM (%)

[[record]]
molecule = "CC(C)(C)N1CCC(c2cc(-c3ccc(F)cc3Cl)c3cc[n+]([O-])c(-c4c(Cl)cccc4Cl)c3n2)CC1"
test_system = "MKK6 (Homo sapiens)"
measurement_name = "remaining activity at 10 µM"
meas_value = 0

[[record]]
molecule = "COc1c(NC(=O)c2ccc(C)c(-c3nnc4c(NCC(C)(C)C)nccn34)c2)cc(C(C)(C)C)cc1NS(C)(=O)=O [compound 7, reference compound]"
test_system = "MKK6 (Homo sapiens)"
measurement_name = "remaining activity at 10 µM"
meas_value = -3

[[record]]
molecule = "Cn1cc(-c2cccc(-c3nc(C(=O)NC4C5CC6CC4CC(O)(C6)C5)c(N)nc3N)c2)cn1 (centres unmarked)"
test_system = "MKK6 (Homo sapiens)"
measurement_name = "remaining activity at 10 µM"
meas_value = 80

[[record]]
molecule = "CS(=O)(=O)N1CCN(c2ccc(Nc3ncc(C(N)=O)c(NC4CC4)n3)cc2)CC1"
test_system = "MKK6 (Homo sapiens)"
measurement_name = "remaining activity at 10 µM"
meas_value = 32

[[record]]
molecule = "Cc1ccc(C(=O)NCC2CC2)cc1-c1ccc2c(c1)NC(=O)C21CCCC1"
test_system = "MKK6 (Homo sapiens)"
measurement_name = "remaining activity at 10 µM"
meas_value = -3


====

# test system: CaMKI (Homo sapiens)
# Construct: purchased Eurofins Pharma Discovery Services (KinaseProfiler; Cerep BioPrint panel)
# Sequence (Q14012 whole entry): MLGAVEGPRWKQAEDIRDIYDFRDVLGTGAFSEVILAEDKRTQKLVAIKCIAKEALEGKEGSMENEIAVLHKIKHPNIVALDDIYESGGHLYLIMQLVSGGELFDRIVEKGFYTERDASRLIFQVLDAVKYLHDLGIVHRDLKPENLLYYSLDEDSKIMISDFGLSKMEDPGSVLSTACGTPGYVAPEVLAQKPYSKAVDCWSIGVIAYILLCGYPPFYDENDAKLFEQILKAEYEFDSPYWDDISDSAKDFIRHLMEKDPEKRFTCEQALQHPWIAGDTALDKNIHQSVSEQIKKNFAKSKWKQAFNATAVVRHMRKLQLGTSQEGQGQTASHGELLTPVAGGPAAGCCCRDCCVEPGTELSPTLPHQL
# run description: kinase selectivity panel
# Format: biochemical
# condition set: read-out: percentage of control activity (POC), CaMKI
measurement name: remaining activity at 10 µM (%)

[[record]]
molecule = "CC(C)(C)N1CCC(c2cc(-c3ccc(F)cc3Cl)c3cc[n+]([O-])c(-c4c(Cl)cccc4Cl)c3n2)CC1"
meas_value = 94

[[record]]
molecule = "CS(=O)(=O)N1CCN(c2ccc(Nc3ncc(C(N)=O)c(NC4CC4)n3)cc2)CC1"
meas_value = 28

[[record]]
molecule = "COc1c(NC(=O)c2ccc(C)c(-c3nnc4c(NCC(C)(C)C)nccn34)c2)cc(C(C)(C)C)cc1NS(C)(=O)=O [compound 7, reference compound]"
meas_value = 108

[[record]]
molecule = "Cn1cc(-c2cccc(-c3nc(C(=O)NC4C5CC6CC4CC(O)(C6)C5)c(N)nc3N)c2)cn1 (centres unmarked)"
meas_value = 87

[[record]]
molecule = "Cc1ccc(C(=O)NCC2CC2)cc1-c1ccc2c(c1)NC(=O)C21CCCC1"
meas_value = 95


====

# test system: EphA2 (Homo sapiens)
# Construct: purchased Eurofins Pharma Discovery Services (KinaseProfiler; Cerep BioPrint panel)
# Sequence (P29317 24-976): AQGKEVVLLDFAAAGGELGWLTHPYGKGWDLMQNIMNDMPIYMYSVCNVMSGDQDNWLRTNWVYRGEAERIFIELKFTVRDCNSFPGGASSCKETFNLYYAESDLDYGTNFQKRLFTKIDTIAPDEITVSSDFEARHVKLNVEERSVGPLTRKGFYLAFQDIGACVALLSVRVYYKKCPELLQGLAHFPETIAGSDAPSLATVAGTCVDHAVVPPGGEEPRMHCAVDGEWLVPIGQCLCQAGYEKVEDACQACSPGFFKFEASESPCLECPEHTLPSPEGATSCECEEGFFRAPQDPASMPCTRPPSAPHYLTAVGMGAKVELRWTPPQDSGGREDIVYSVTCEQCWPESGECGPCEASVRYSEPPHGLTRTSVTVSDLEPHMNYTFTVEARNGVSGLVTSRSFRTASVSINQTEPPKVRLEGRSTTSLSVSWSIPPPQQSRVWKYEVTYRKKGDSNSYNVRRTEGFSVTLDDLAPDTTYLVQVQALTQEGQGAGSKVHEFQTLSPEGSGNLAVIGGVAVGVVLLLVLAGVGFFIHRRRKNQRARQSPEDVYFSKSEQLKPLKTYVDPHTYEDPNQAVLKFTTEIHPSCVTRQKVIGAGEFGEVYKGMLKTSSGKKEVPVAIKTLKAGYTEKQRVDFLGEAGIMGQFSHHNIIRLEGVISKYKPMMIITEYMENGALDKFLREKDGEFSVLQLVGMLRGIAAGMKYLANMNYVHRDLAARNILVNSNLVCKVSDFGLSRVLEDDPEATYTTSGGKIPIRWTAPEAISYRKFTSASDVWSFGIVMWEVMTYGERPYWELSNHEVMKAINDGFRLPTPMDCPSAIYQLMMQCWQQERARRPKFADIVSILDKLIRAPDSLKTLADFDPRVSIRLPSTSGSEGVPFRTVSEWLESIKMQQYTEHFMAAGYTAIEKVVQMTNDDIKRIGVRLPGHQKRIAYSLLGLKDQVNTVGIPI
# run description: kinase selectivity panel
# Assay type: biochemical
# condition set: read-out: percentage of control activity (POC), EphA2
Parameter: remaining activity at 10 µM. Scope: all listed entries.
measurement name: remaining activity at 10 µM (%)

[[record]]
molecule = "Cc1ccc(C(=O)NCC2CC2)cc1-c1ccc2c(c1)NC(=O)C21CCCC1 [compound 3]"
units = "%"
meas_value = 100

[[record]]
molecule = "COc1c(NC(=O)c2ccc(C)c(-c3nnc4c(NCC(C)(C)C)nccn34)c2)cc(C(C)(C)C)cc1NS(C)(=O)=O [compound 7, reference compound]"
units = "%"
meas_value = 63

[[record]]
molecule = "CS(=O)(=O)N1CCN(c2ccc(Nc3ncc(C(N)=O)c(NC4CC4)n3)cc2)CC1 [compound 5]"
units = "%"
meas_value = 57

[[record]]
molecule = "Cn1cc(-c2cccc(-c3nc(C(=O)NC4C5CC6CC4CC(O)(C6)C5)c(N)nc3N)c2)cn1 (centres unmarked) [compound 4]"
units = "%"
meas_value = 97

[[record]]
molecule = "CC(C)(C)N1CCC(c2cc(-c3ccc(F)cc3Cl)c3cc[n+]([O-])c(-c4c(Cl)cccc4Cl)c3n2)CC1 [compound 2]"
units = "%"
meas_value = 103


====

# test system: NLK (Homo sapiens, UniProt Q9UBE8)
# Construct: purchased Eurofins Pharma Discovery Services (KinaseProfiler; Cerep BioPrint panel)
# Sequence (Q9UBE8 whole entry): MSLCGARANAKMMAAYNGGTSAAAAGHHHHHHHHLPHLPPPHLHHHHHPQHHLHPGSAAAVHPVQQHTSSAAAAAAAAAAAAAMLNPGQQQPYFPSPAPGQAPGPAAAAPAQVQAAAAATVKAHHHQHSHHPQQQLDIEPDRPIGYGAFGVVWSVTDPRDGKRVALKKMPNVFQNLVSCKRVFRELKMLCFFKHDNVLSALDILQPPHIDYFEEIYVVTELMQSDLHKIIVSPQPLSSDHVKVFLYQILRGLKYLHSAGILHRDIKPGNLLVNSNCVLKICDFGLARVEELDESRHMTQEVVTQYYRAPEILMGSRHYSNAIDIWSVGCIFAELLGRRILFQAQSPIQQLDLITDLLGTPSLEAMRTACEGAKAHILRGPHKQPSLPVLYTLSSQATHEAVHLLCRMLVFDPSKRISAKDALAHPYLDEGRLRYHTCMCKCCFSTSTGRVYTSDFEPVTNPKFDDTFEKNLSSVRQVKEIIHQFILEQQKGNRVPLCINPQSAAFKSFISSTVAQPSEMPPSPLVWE
# run description: kinase selectivity panel
# Format: biochemical
# condition set: read-out: percentage of control activity (POC), NLK
Parameter: remaining activity at 10 µM. Scope: all listed entries.
measurement name: remaining activity at 10 µM (%)

[[record]]
compound = "CS(=O)(=O)N1CCN(c2ccc(Nc3ncc(C(N)=O)c(NC4CC4)n3)cc2)CC1"
measurement_name = "remaining activity at 10 µM"
units = "%"
meas_value = 83

[[record]]
compound = "COc1c(NC(=O)c2ccc(C)c(-c3nnc4c(NCC(C)(C)C)nccn34)c2)cc(C(C)(C)C)cc1NS(C)(=O)=O [compound 7, reference compound]"
measurement_name = "remaining activity at 10 µM"
units = "%"
meas_value = 94

[[record]]
compound = "Cn1cc(-c2cccc(-c3nc(C(=O)NC4C5CC6CC4CC(O)(C6)C5)c(N)nc3N)c2)cn1 (centres unmarked)"
measurement_name = "remaining activity at 10 µM"
units = "%"
meas_value = 85

[[record]]
compound = "CC(C)(C)N1CCC(c2cc(-c3ccc(F)cc3Cl)c3cc[n+]([O-])c(-c4c(Cl)cccc4Cl)c3n2)CC1"
measurement_name = "remaining activity at 10 µM"
units = "%"
meas_value = 86

[[record]]
compound = "Cc1ccc(C(=O)NCC2CC2)cc1-c1ccc2c(c1)NC(=O)C21CCCC1"
measurement_name = "remaining activity at 10 µM"
units = "%"
meas_value = 99


====

# test system: Yes (Homo sapiens)
# Construct: Eurofins Pharma Discovery Services (contract assay service)
# Sequence (P07947 whole entry, species assumed): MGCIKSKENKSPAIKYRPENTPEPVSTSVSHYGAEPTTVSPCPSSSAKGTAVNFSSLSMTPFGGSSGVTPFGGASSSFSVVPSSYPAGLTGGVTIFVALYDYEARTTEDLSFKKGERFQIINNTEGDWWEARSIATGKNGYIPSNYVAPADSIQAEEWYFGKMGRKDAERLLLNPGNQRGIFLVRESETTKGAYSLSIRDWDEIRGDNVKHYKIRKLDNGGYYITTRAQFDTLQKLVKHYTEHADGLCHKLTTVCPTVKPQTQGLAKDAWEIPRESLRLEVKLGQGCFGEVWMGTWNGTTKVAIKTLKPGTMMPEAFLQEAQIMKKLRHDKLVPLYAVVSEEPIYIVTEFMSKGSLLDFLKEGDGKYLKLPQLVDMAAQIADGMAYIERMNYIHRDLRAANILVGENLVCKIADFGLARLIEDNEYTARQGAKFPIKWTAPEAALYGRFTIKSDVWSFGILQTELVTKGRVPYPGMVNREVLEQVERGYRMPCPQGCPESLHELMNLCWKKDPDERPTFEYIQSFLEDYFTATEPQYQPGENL
# run description: kinase selectivity panel
# Assay type: biochemical
# condition set: 10 μM; read-out: percentage of control activity (POC), Yes
Parameter: remaining activity at 10 µM. Scope: all listed entries.
measurement name: remaining activity at 10 µM (%)

[[record]]
compound = "Cn1cc(-c2cccc(-c3nc(C(=O)NC4C5CC6CC4CC(O)(C6)C5)c(N)nc3N)c2)cn1 (centres unmarked)"
test_system = "Yes (Homo sapiens)"
measurement_name = "remaining activity at 10 µM"
units = "%"
meas_value = 23

[[record]]
compound = "CC(C)(C)N1CCC(c2cc(-c3ccc(F)cc3Cl)c3cc[n+]([O-])c(-c4c(Cl)cccc4Cl)c3n2)CC1"
test_system = "Yes (Homo sapiens)"
measurement_name = "remaining activity at 10 µM"
units = "%"
meas_value = 107

[[record]]
compound = "COc1c(NC(=O)c2ccc(C)c(-c3nnc4c(NCC(C)(C)C)nccn34)c2)cc(C(C)(C)C)cc1NS(C)(=O)=O [compound 7, reference compound]"
test_system = "Yes (Homo sapiens)"
measurement_name = "remaining activity at 10 µM"
units = "%"
meas_value = 99

[[record]]
compound = "CS(=O)(=O)N1CCN(c2ccc(Nc3ncc(C(N)=O)c(NC4CC4)n3)cc2)CC1"
test_system = "Yes (Homo sapiens)"
measurement_name = "remaining activity at 10 µM"
units = "%"
meas_value = 4

[[record]]
compound = "Cc1ccc(C(=O)NCC2CC2)cc1-c1ccc2c(c1)NC(=O)C21CCCC1"
test_system = "Yes (Homo sapiens)"
measurement_name = "remaining activity at 10 µM"
units = "%"
meas_value = 100

